growth inhibition values for the compounds below.
- protocol.summary: antimalarial activity against Dd2 strain (AID 2302);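 further: 0% = DMSO untreated growth and 100% = chloroquine plus artemisinin killed control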
- assay.context: P. falciparum Dd2 in RBCs, LDH growth readout, 72 h; at 2 µM; active compounds read high
Numbers only; they are read as %.

compound	readout.unit	growth inhibition
O=C(O)c1ccc(-c2c[nH]c3ncc(-c4ccc(Cl)cc4)cc23)cc1	%	99
Cc1cccc2[nH]c(-c3cccc(-c4cccc(CNCc5ccc(S(C)(=O)=O)cc5)c4)c3)nc12	%	66
COC(=O)c1ccc(C(=O)NCCCCN2CCC(c3ccc4c(c3OC)CCCC4)CC2)cc1-c1ccc(C(F)(F)F)cc1	%	19
CC1(C)CC(NCCCCCCCOc2ccc(OCc3ccccc3)cc2)CC(C)(C)N1	%	73

So what's the measured growth inhibition for this one? CN(CCN(C)CC(O)c1ccc(Cl)c(Cl)c1)CC(O)c1ccc(Cl)c(Cl)c1 (stereo not given)
73

Reported growth inhibition, compound COc1ccc2nccc([C@@H](O)CN3CCC(NCCOc4c(C)cccc4F)CC3)c2c1 : ____
95

Entry Cc1ccc2nc(C)cc(Nc3ccccc3O)c2c1 has what growth inhibition?
6

Record request: growth inhibition value, item CCOC(=O)N1CCN(CCCNc2c3ccc(Cl)cc3nc3ccc(OC)cc23)CC1
100

Tell me the measured growth inhibition of Cc1cccc(-c2nc(Nc3ccncc3)c3cc(N(C)C)ccc3n2)n1 , please.
63

All figures here come from PubChem BioAssay.
